target: p38α (Homo sapiens); test: P38α enzyme inhibition assay (ATF-2 phosphorylation ELISA); conditions: activated p38α, substrate ATF-2, ATP 100 μM, 60 minutes incubation, photometric readout 405 nm; read-out: Kinase assay IC50
pIC50: −log10 of the molar value.
Returns one of condition met or condition not met; condition met when pIC50 is >= 8.

CCC(C)Nc1cc(-c2[nH]c(SCC(O)CO)nc2-c2ccc(F)cc2)ccn1 (stereo not drawn)
condition met
OCCSc1nc(-c2ccc(F)cc2)c(-c2ccnc(N[C@H]3CC[C@H](O)CC3)c2)[nH]1
condition met
CC(C)Nc1cc(-c2[nH]c(SCC(O)CO)nc2-c2ccc(F)cc2)ccn1 (stereo not drawn)
condition met
CC(C)Nc1cc(-c2[nH]c(SCCO)nc2-c2ccc(F)cc2)ccn1
condition met
COC(=O)CSc1nc(-c2ccc(F)cc2)c(-c2ccnc(NC(C)C(C)C)c2)[nH]1 (stereo not drawn)
condition not met
COC(=O)CSc1nc(-c2ccc(F)cc2)c(-c2ccnc(NC(C)c3ccccc3)c2)[nH]1 (stereo not drawn)
condition not met

Answer whether pIC50 of `CC(C)Nc1cc(-c2[nH]c(SC[C@@H](O)CO)nc2-c2ccc(F)cc2)ccn1` is greater than or equal to 8.
condition met

Answer whether pIC50 of CCOP(=O)(CSc1nc(-c2ccc(F)cc2)c(-c2ccnc(NC(C)c3ccccc3)c2)[nH]1)OCC (stereo not drawn) is greater than or equal to 8.
condition not met

Answer whether pIC50 of `COC(=O)CSc1nc(-c2ccc(F)cc2)c(-c2ccnc(NC(C)C)c2)[nH]1` is greater than or equal to 8.
condition met

Answer whether pIC50 of OCC(O)CSc1nc(-c2ccc(F)cc2)c(-c2ccnc(NCc3ccccc3)c2)[nH]1 (stereo not drawn) is greater than or equal to 8.
condition not met

* * *

target: p38α (Homo sapiens, UniProt Q16539); assay: P38α enzyme inhibition assay (ATF-2 phosphorylation ELISA); conditions: activated p38α, substrate ATF-2, ATP 100 μM, 60 minutes incubation, photometric readout 405 nm; read-out: Kinase assay IC50
Sequence (Q16539 whole entry): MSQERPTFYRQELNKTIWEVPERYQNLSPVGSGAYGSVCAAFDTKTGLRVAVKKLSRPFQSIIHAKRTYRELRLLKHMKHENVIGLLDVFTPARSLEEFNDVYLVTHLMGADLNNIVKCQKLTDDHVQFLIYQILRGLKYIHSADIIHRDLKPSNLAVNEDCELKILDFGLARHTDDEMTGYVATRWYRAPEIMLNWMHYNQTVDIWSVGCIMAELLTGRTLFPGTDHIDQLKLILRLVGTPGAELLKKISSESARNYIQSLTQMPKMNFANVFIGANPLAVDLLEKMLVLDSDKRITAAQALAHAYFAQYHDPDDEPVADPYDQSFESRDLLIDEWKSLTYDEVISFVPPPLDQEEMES
Examples of compounds with documented pIC50 follow.
# reply with the number alone; pIC50 is -log10 of concentration in mol/L

CC(Nc1cc(-c2[nH]c(SCC(O)CO)nc2-c2ccc(F)cc2)ccn1)c1ccccc1 (centres unmarked)
7.38
CNc1cc(-c2[nH]c(SCC(O)CO)nc2-c2ccc(F)cc2)ccn1 (centres unmarked)
7.00
CC(C)C(C)Nc1cc(-c2[nH]c(SC[C@H](O)CO)nc2-c2ccc(F)cc2)ccn1 (some centres unmarked)
7.77
OCC(O)CSc1nc(-c2ccc(F)cc2)c(-c2ccncc2)[nH]1 (centres unmarked) [reference compound]
5.44

If you can, please state the reported pIC50 value of CCNc1cc(-c2[nH]c(SCC(O)CO)nc2-c2ccc(F)cc2)ccn1 (centres unmarked) .
7.59

If you can, please state the reported pIC50 value of OCC(O)CSc1nc(-c2ccc(F)cc2)c(-c2ccnc(NC3CCOCC3)c2)[nH]1 (centres unmarked) .
8.48

If you can, please state the reported pIC50 value of `CC(C)Nc1cc(-c2[nH]c(SC[C@H](O)CO)nc2-c2ccc(F)cc2)ccn1` .
8.26

If you can, please state the reported pIC50 value of CC(C)C(C)Nc1cc(-c2[nH]c(SCC(O)CO)nc2-c2ccc(F)cc2)ccn1 (centres unmarked) .
7.85

Reference for the values: patent US8143294B2
